Listing of entries alongside the reported melting point.

Worked examples, 6 compounds total:
{"Substance smiles": "COc1ccc(-c2c[nH]c3c(-c4ccco4)ccc(C)c3c2=O)cc1", "Experimental endpoint": "melting point", "Obs value": "129 to 131 °C"}
{"Substance smiles": "CCCOc1cccc2c(=O)c(-c3ccccc3OC)c[nH]c12", "Experimental endpoint": "melting point", "Obs value": "218 to 220 °C"}
{"Substance smiles": "Cc1ccc(O)c2[nH]cc(-c3ccc(O)cc3)c(=O)c12", "Experimental endpoint": "melting point", "Obs value": "270 to 275 °C (dec.)"}
{"Substance smiles": "COc1ccc(-c2c[nH]c3c(-c4ccsc4)ccc(C)c3c2=O)cc1", "Experimental endpoint": "melting point", "Obs value": "189 to 190 °C"}
{"Substance smiles": "CCCSc1ccc(C)c2c(=O)c(-c3ccc(OC)cc3)c[nH]c12", "Experimental endpoint": "melting point", "Obs value": "132 to 135 °C"}
{"Substance smiles": "CCCOc1ccc(C)c2c(=O)c(-c3ccccc3C)c[nH]c12", "Experimental endpoint": "melting point", "Obs value": "201 to 202 °C"}

query: Which measured melting point value corresponds to `CCCOc1ccc(OC)c2c(=O)c(-c3cc(OC)ccc3OC)c[nH]c12` ?
result: 179 to 180 °C

query: Item: `CCCOc1ccc(C)c2c(=O)c(-c3cn(C)c4ccccc34)c[nH]c12`
result: 106 to 109 °C

query: Queued: `CCCOc1cccc2c(=O)c(-c3ccc(OC)cc3OC)c[nH]c12`
result: 231 to 232 °C

---

# Tested on: human neuroblastoma cell lines SH-SY5Y treated with 1-methyl-4-phenylpyridinium (MPP+)
# Measurement protocol: Improvement of mitochondrial function (Alamar Blue mitochondrial oxidation reduction activity) in MPP+-treated SH-SY5Y cells
# Type: cell-based
# Condition label: compound 0.01 μg/ml, 1.5 mM MPP+, relative to cells in DMSO alone = 100%, read-out: Fluorescence Intensity (%)
Reported activity at 0.01 µg/mL values for the following compounds.

{"Compound": "CCCOc1ccc(C(F)(F)F)c2c(=O)c(-c3ccc(OC)cc3)c[nH]c12 [Example 24]", "Experimental endpoint": "activity at 0.01 µg/mL", "Obs value": "50%"}

query: So what does the record say about activity at 0.01 µg/mL for COc1ccc(OCC2CC2)c2[nH]c(C)c(-c3ccco3)c(=O)c12 [Example 109] ?
result: 49%

query: Please give the result for CCCOc1ccc(C)c2c(=O)c(-c3ccc(OC)cc3OC)c[nH]c12 [Example 20] too.
result: 65%

query: Next entry: CCCOc1ccc(C)c2c(=O)c(-c3ccc4c(c3)OCO4)c[nH]c12 [Example 60]
result: 52%

query: Same for CCCOc1ccc(C)c2c(=O)c(-c3ccc(OC)cc3)c[nH]c12 [Example 1]
result: 58%

query: Proceed to CCCOc1c(C)cc(C)c2c(=O)c(-c3ccc(OC)cc3)c[nH]c12 [Example 23]
result: 51%

query: Another compound to look at: CCCOc1ccc(C)c2c(=O)c(-c3csc4ccccc34)c[nH]c12 [Example 63]
result: 40%

query: Try the compound CCCOc1ccc(OC)c2c(=O)c(-c3cccc4ccccc34)c[nH]c12 [Example 51]
result: 37%

query: Proceed to COc1ccc(-c2c[nH]c3c(-c4ccco4)ccc(C)c3c2=O)cc1 [Example 96]
result: 54%

query: // repeat for CCCOc1ccc(C(=O)N(C)C)c2c(=O)c(-c3ccc(OC)cc3)c[nH]c12 [Example 87] and report
result: 57%

---

Experimental endpoint: melting point

Consider the worked cases shown below.
{"Substance smiles": "CCCOc1ccc(C)c2c(=O)c(-c3ccncc3)c[nH]c12", "melting point": "112 to 113 °C"}
{"Substance smiles": "CCCOc1cccc2c(=O)c(-c3cccc4ccccc34)c[nH]c12", "melting point": "255 to 256 °C"}
{"Substance smiles": "CCCOc1ccc(C)c2c(=O)c(-c3cccc(OC)c3OC)c[nH]c12", "melting point": "170 to 171 °C"}
{"Substance smiles": "COc1ccc(-c2c[nH]c3c(Br)ccc(C)c3c2=O)cc1", "melting point": "185 to 186 °C"}
{"Substance smiles": "CCCOc1ccc(OC)c2c(=O)c(-c3ccc(OC)cc3OC)c[nH]c12", "melting point": "113 to 114 °C"}

query: Entry `CCCOc1cccc2c(=O)c(-c3cc(OC)ccc3OC)c[nH]c12` has what melting point?
result: 175 °C

query: Field entry: `CCCOc1c(F)ccc2c(=O)c(-c3ccc(OC)cc3)c[nH]c12`
result: 160 to 161 °C

query: Would you mind doing `COc1ccc(-c2c[nH]c3c(N(C)C(C)C)ccc(C)c3c2=O)cc1` as well?
result: 186 to 187 °C

query: Can you check `COc1ccc(-c2c[nH]c3c(N(C)C4CCCCC4)ccc(C)c3c2=O)cc1` next?
result: 186 to 187 °C

query: Moving on to the next compound: `CCn1cc(-c2ccc(OC)cc2)c(=O)c2ccc(OC)cc21`
result: 129 to 131 °C

query: Then what about the compound `CCCOc1ccc(OC)c2c(=O)c(-c3cccc4ccccc34)c[nH]c12` ?
result: 130 to 133 °C

query: Next up: `CCCOc1cc(F)cc2c(=O)c(-c3ccc(OC)cc3)c[nH]c12`
result: 153 to 154 °C

query: Now the compound `CCCOc1ccc(CC)c2c(=O)c(-c3ccc(OC)cc3)c[nH]c12`
result: 169 to 170 °C

query: Queued: `COc1ccc(-c2c[nH]c3c(OC(C)C)ccc(OC)c3c2=O)cc1`
result: 213 to 214 °C

query: Next up: `COc1ccc(OCC2CC2)c2[nH]cc(-c3ccc(Cl)cc3Cl)c(=O)c12`
result: 254 to 256 °C

query: Likewise for `CCCOc1ccc(C)c2[nH]cc(-c3ccc(OC)cc3)c(=O)c12` ?
result: 156 to 158 °C

query: For `CCCOc1cccc2c(=O)c(-c3c(F)cccc3Cl)c[nH]c12` then?
result: 250 °C

query: Lookup `COc1ccc(-c2c[nH]c3c(OCC(C)C)ccc(OC)c3c2=O)cc1`
result: 242 to 244 °C

query: Likewise for `CCOc1ccc(OCC)c2c(=O)c(-c3ccc(F)cc3)c[nH]c12` ?
result: 232 to 234 °C

query: Same lookup for `CCCOc1cccc2c(=O)c(-c3cccc(Br)c3)c[nH]c12` , please.
result: 107 to 108 °C

query: Subsequent entry: `CCCOc1ccc(C)c2c(=O)c(-c3ccc(Cl)cc3Cl)c[nH]c12`
result: 103 to 106 °C

---

# System: human neuroblastoma cell lines SH-SY5Y treated with 1-methyl-4-phenylpyridinium (MPP+)
# Measurement protocol: Improvement of mitochondrial function (Alamar Blue mitochondrial oxidation reduction activity) in MPP+-treated SH-SY5Y cells
# Type: cell-based
# Condition label: compound 1 μg/ml, 1.5 mM MPP+, relative to cells in DMSO alone = 100%, read-out: Fluorescence Intensity (%)
# Protocol: In human neuroblastoma cell lines SH-SY5Y in which mitochondrial function was damaged by MPP^+ treatment (Bollimuntha S. et al., J Biol Chem, 280, 2132-2140 (2005) and Shang T. et al., J Biol Chem, 280, 34644-34653 (2005)), the improvement of mitochondrial function was evaluated on the basis of the measurement value for mitochondrial oxidation reduction activity using Alamar Blue fluorescent dye after the compound addition (Nakai M. et al, Exp Neurol, 179, 103-110 (2003)). […]
Class Yes: activity at 1 µg/mL at least 40%. Class No: activity at 1 µg/mL below 40%.

Solved cases below.
{"Substance smiles": "CCCOc1ccc(C(F)(F)F)c2c(=O)c(-c3ccc(OC)cc3)c[nH]c12", "System": "human neuroblastoma cell lines SH-SY5Y treated with 1-methyl-4-phenylpyridinium (MPP+)", "Assigned label": "No"}
{"Substance smiles": "CCCOc1ccc(C)c2c(=O)c(-c3ccc4c(c3)OCO4)c[nH]c12", "System": "human neuroblastoma cell lines SH-SY5Y treated with 1-methyl-4-phenylpyridinium (MPP+)", "Assigned label": "Yes"}
{"Substance smiles": "CCCOc1cccc2c(=O)c(-c3ccccc3C(F)(F)F)c[nH]c12", "System": "human neuroblastoma cell lines SH-SY5Y treated with 1-methyl-4-phenylpyridinium (MPP+)", "Assigned label": "Yes"}

query: State whether the measured activity at 1 µg/mL reaches 40%, counting equality as reaching it, for `CCCOc1c(C)cc(C)c2c(=O)c(-c3ccc(OC)cc3)c[nH]c12`
result: Yes

query: Queued: `CCCOc1cc(F)cc2c(=O)c(-c3ccc(OC)cc3)c[nH]c12`
result: Yes

---

Experimental endpoint: melting point

Before answering, review these 5 worked examples.
{"Substance smiles": "COc1ccc(-c2c[nH]c3c(N4CCCC4)ccc(C)c3c2=O)cc1", "melting point": "177 to 178 °C"}
{"Substance smiles": "CCCOc1ccc(C(=O)N(C)C)c2c(=O)c(-c3ccc(OC)cc3)c[nH]c12", "melting point": "218 to 220 °C"}
{"Substance smiles": "COc1ccc(-c2c[nH]c3c(-c4cc5ccccc5s4)ccc(C)c3c2=O)cc1", "melting point": "229 to 231 °C"}
{"Substance smiles": "CCOc1cc(NC(=O)c2ccccc2)c(OCC)c2c(=O)c(-c3ccc(OC)cc3)c[nH]c12", "melting point": "120 to 121 °C"}
{"Substance smiles": "CCCOc1cccc2c(=O)c(-c3ccc(OC)cc3C)c[nH]c12", "melting point": "214 to 215 °C"}

query: Query: melting point; subject: `COc1ccc(-c2c[nH]c3c(N4CCOCC4)ccc(C)c3c2=O)cc1`
result: 260 to 263 °C

query: And `CCCOc1ccc(OC)c2c(=O)c(-c3ccccc3OC)c[nH]c12` ?
result: 239 to 241 °C

query: Another molecule: `O=c1c(-c2ccc(Cl)cc2Cl)c[nH]c2c(OCC3CC3)ccc(O)c12`
result: 163 to 165 °C

query: Entry `CCCOc1ccc(C)c2c(=O)c(-c3ccc(OC)cc3OCC)c[nH]c12` please
result: 191 to 192 °C

query: For `CCCOc1ccc(C)c2c(=O)c(-c3ccc(O)cc3)c[nH]c12` then?
result: 265 to 267 °C

query: Another molecule: `CCCOc1ccc(C2CC2)c2c(=O)c(-c3ccc(OC)cc3)c[nH]c12`
result: 168 to 170 °C

query: Same question, `CCCOc1cccc2c(=O)c(-c3ccccc3Br)c[nH]c12` this time
result: 200 to 203 °C

query: Would you mind doing `CCCOc1cccc2c(=O)c(-c3ccncc3)c[nH]c12` as well?
result: 259 to 260 °C

query: Then this molecule: `COc1ccc(-c2c[nH]c3c(OC4CCCC4)ccc(C)c3c2=O)cc1`
result: 237 to 239 °C

query: And for `CCCOc1cccc2c(=O)c(-c3ccc(OC)c(OC)c3)c[nH]c12` ?
result: 210 to 211 °C
